Tested on: Clostridium difficile UNT103-1
Assay: Non-cannulated Syrian hamster C. difficile infection model, oral gavage
Assay type: in vivo, Golden Syrian hamsters
Conditions: oral gavage; first value of A/B cell; limit of detection 0.8
A collection of compounds and their measured Toxin A level at Day-22
observationType: Toxin A level at Day-22 (ng/mL)

1) C=C1NC(=O)[C@H](Cc2c[nH]c3ccccc23)NC(=O)[C@H](NC(=O)[C@H](CCCCN)NC(=O)[C@@H](N)CC(C)C)CSC[C@@H](C(=O)N[C@H]2C(=O)N3CCC[C@H]3C(=O)NCC(=O)N[C@H](C(=O)N[C@@H](C)C(=O)N[C@@H](C)C(=O)NC(=CC)C(=O)NCC(=O)N[C@@H]3CSC[C@@H]4NC(=O)[C@H](Cc5ccc(O)cc5)NC(=O)[C@@H](CS/C=C\NC4=O)NC(=O)[C@H](CC(N)=O)NC(=O)[C@H](Cc4ccccc4)NC3=O)CS[C@H]2C)NC(=O)[C@H](CC(C)C)NC1=O [F1L R13A] :: 4532.5
2) C=C1NC(=O)[C@H](Cc2c[nH]c3ccccc23)NC(=O)[C@H](NC(=O)[C@H](CCCCN)NC(=O)[C@@H](N)[C@@H](C)CC)CSC[C@@H](C(=O)N[C@H]2C(=O)N3CCC[C@H]3C(=O)NCC(=O)N[C@H](C(=O)N[C@@H](C)C(=O)N[C@@H](CC(N)=O)C(=O)NC(=CC)C(=O)NCC(=O)N[C@@H]3CSC[C@@H]4NC(=O)[C@H](Cc5ccc(O)cc5)NC(=O)[C@@H](CS/C=C\NC4=O)NC(=O)[C@H](CC(N)=O)NC(=O)[C@H](Cc4ccccc4)NC3=O)CS[C@H]2C)NC(=O)[C@H](CC(C)C)NC1=O [F1I R13N] :: 138.1
3) C=C1NC(=O)[C@H](Cc2c[nH]c3ccccc23)NC(=O)[C@H](NC(=O)[C@H](CCCCN)NC(=O)[C@@H](N)CC(C)C)CSC[C@@H](C(=O)N[C@H]2C(=O)N3CCC[C@H]3C(=O)NCC(=O)N[C@H](C(=O)N[C@@H](C)C(=O)N[C@@H](CC(N)=O)C(=O)NC(=CC)C(=O)NCC(=O)N[C@@H]3CSC[C@@H]4NC(=O)[C@H](Cc5ccc(O)cc5)NC(=O)[C@@H](CS/C=C\NC4=O)NC(=O)[C@H](CC(N)=O)NC(=O)[C@H](Cc4ccccc4)NC3=O)CS[C@H]2C)NC(=O)[C@H](CC(C)C)NC1=O [F1L R13N] :: 5477.8
4) C=C1NC(=O)[C@H](Cc2c[nH]c3ccccc23)NC(=O)[C@H](NC(=O)[C@H](CCCCN)NC(=O)[C@@H](N)[C@@H](C)CC)CSC[C@@H](C(=O)N[C@H]2C(=O)N3CCC[C@H]3C(=O)NCC(=O)N[C@H](C(=O)N[C@@H](C)C(=O)N[C@@H](CC(=O)O)C(=O)NC(=CC)C(=O)NCC(=O)N[C@@H]3CSC[C@@H]4NC(=O)[C@H](Cc5ccc(O)cc5)NC(=O)[C@@H](CS/C=C\NC4=O)NC(=O)[C@H](CC(N)=O)NC(=O)[C@H](Cc4ccccc4)NC3=O)CS[C@H]2C)NC(=O)[C@H](CC(C)C)NC1=O [F1I R13D] :: 648.5
